# systemTested: KHK-C expressed in NRK-52E cells (Homo sapiens (Human), UniProt P50053)
# Sequence (P50053 whole entry): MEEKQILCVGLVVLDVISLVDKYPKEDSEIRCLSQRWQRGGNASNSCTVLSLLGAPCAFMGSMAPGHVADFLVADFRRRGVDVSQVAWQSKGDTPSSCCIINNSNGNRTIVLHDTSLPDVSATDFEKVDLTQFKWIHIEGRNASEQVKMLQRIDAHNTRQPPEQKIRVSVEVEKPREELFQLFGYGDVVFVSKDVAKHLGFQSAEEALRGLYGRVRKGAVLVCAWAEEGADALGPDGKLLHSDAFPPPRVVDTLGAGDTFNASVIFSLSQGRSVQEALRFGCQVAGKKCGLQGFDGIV
# methodDescription: KHK-C Cell-based Assay (EC50), NRK CTG, fructose-mediated ATP-depletion
pEC50: −log10 of the molar value.
reportedMetric: pEC50

Here's what some known entries look like.
[
  {
    "compound": "C[C@H]1CCN1c1nc2c(c(-c3ccc4nc(N)[nH]c(=O)c4c3)n1)CCC2",
    "systemTested": "KHK-C expressed in NRK-52E cells (Homo sapiens (Human), UniProt P50053)",
    "pEC50": 6.82
  },
  {
    "compound": "C[C@H]1[C@H](O)CN1c1nc(-c2cccc(S(N)(=O)=O)c2)c2c(n1)C(F)(F)CC2",
    "systemTested": "KHK-C expressed in NRK-52E cells (Homo sapiens (Human), UniProt P50053)",
    "pEC50": 7.12
  },
  {
    "compound": "C[C@H]1CCN1c1nc2c(c(-c3ccc4sc(N)nc4c3)n1)CCC2",
    "systemTested": "KHK-C expressed in NRK-52E cells (Homo sapiens (Human), UniProt P50053)",
    "pEC50": 6.91
  }
]

(a) C[C@H]1CCN1c1nc2c(c(-c3ccc4c(=O)[nH]cnc4c3)n1)CCC2
(b) C[C@H]1[C@H](O)CN1c1nc(-c2ccc3c(c2)CC[C@@]32CCC(=O)N2)c2c(n1)C(F)(F)CC2 (single isomer, unassigned)
(c) C[C@H]1CCN1c1nc2c(c(-c3ccc4nc(N)oc4c3)n1)CCC2
(d) C[C@H]1CCN1c1nc2c(c(-c3ccc4c(c3)CC(CC(N)=O)C4)n1)CCC2 (stereo partly drawn)
(e) C[C@H]1CCN1c1nc2c(c(-c3cc(F)c4c(=O)[nH]ccc4c3)n1)CCC2
*Q* List the 5 entries from lowest pEC50 to highest pEC50 value. Put the labels in the requested order and list them out.
*A* d, b, c, e, a

Origin of measurements: patent US12410160B2
